# TGT: Carbonic anhydrase 2 (Homo sapiens, UniProt P00918)
# TEST_DESCRIPTION: Inhibition of recombinant human CA2 pre-incubated for 6 hrs measured by phenol red dye based stopped flow CO2 hydration assay

[
  {
    "SMILES_RECORD": "O=C(Cn1cc(F)c(=O)[nH]c1=O)Oc1ccc2ccc(=O)oc2c1",
    "TGT": "Carbonic anhydrase 2 (Homo sapiens, UniProt P00918)",
    "Ki": "> 10 µM"
  },
  {
    "SMILES_RECORD": "Cc1cc(=O)oc2cc(NC(=O)Cn3cc(F)c(=O)[nH]c3=O)ccc12",
    "TGT": "Carbonic anhydrase 2 (Homo sapiens, UniProt P00918)",
    "Ki": "> 10 µM"
  },
  {
    "SMILES_RECORD": "Cc1cc(=O)oc2cc(-n3cc(Cn4cc(F)c(=O)[nH]c4=O)nn3)ccc12",
    "TGT": "Carbonic anhydrase 2 (Homo sapiens, UniProt P00918)",
    "Ki": "> 10 µM"
  }
]

These data points were gathered from ChEMBL document CHEMBL4765260.
